The measured values listed here are drawn from patent US20110311483A1.

Target: CRTH2 (Homo sapiens, UniProt Q9Y5Y4)
Construct: polymorphonuclear cells (0.5 ml; 10^6/ml cells) in PBS containing 0.9 mM CaCl2 and 0.5 mM MgCl2) were preincubated with various concentrations of test compounds; endogenous in cells; host or cells: polymorphonuclear cells (eosinophils gated by side scatter and VLA-4)
Sequence (Q9Y5Y4 whole entry): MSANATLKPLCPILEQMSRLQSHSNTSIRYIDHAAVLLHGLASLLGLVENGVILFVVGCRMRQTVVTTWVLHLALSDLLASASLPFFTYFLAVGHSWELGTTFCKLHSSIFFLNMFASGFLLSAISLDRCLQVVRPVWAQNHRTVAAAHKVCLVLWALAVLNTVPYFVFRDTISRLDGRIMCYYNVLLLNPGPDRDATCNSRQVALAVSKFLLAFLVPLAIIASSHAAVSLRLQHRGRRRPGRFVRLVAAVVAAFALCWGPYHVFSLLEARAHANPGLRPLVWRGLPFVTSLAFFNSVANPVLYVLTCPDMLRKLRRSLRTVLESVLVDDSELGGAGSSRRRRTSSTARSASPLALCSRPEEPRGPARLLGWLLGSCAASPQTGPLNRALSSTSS
Assay: DPBS CD11b Antagonist Assay (CD11b expression in eosinophils, polymorphonuclear cells challenged with 15R-Methyl-PGD2)
Assay type: cell-based
Details: polymorphonuclear cells in PBS with CaCl2 and MgCl2; agonist 15R-Methyl-PGD2 10 nM; flow cytometry
attribute_measured: IC50

INSERT INTO assay_data (molecule, measured_value) VALUES
  ('CCOC(=O)Cn1c(C)c(Cc2ccccc2S(=O)(=O)N(C)CC)c2c1CC(C)(C)CC2=O', '100 to 600 nM'),
  ('Cc1c(Cc2ccccc2S(=O)(=O)N2CCCCC2)c2c(n1CC(=O)O)CC(C)(C)CC2=O', '< 10 nM'),
  ('CCN(C)S(=O)(=O)c1ccccc1Cc1c2c(n(CC(=O)O)c1C)CC(C)(C)CC2=O', '< 10 nM'),
  ('CCOC(=O)C(C)n1c(C)c(Cc2ccccc2S(=O)(=O)N2CCCC2)c2c1CC(C)(C)CC2=O (centres unmarked)', '> 600 nM'),
  ('Cc1c(C(=O)c2ccccc2S(=O)(=O)N2CCOCC2)c2c(n1CC(=O)O)CCC(C)(C)C2', '100 to 600 nM');

---

Target: CRTH2 (Homo sapiens, UniProt Q9Y5Y4)
Construct: polymorphonuclear cells (0.5 ml; 10^6/ml cells) in PBS containing 0.9 mM CaCl2 and 0.5 mM MgCl2) were preincubated with various concentrations of test compounds; endogenous in cells; host or cells: polymorphonuclear cells (eosinophils gated by side scatter and VLA-4)
Experiment: Human Whole Blood CD11b Antagonist Assay (CD11b expression in eosinophils challenged with 15R-Methyl-PGD2)
Assay type: cell-based
Settings: agonist 15R-Methyl-PGD2 10 nM, flow cytometry
pIC50: −log10 of the molar value.
Quick reference: pIC50 of the listed items.
attribute_measured: pIC50

INSERT INTO assay_data (compound, measured_value) VALUES
  ('Cc1c(Cc2ccccc2S(=O)(=O)N2CCCCC2)c2c(n1CC(=O)O)CC(C)(C)CC2=O [Compound I-4]', '> 8.00'),
  ('CCOC(=O)Cn1c(C)c(Cc2ccccc2S(=O)(=O)N(C)CC)c2c1CC(C)(C)CC2=O [Compound I-2]', '< 6.22'),
  ('Cc1c(C(=O)c2ccccc2S(=O)(=O)N2CCOCC2)c2c(n1CC(=O)O)CCC(C)(C)C2 [Compound I-1]', '6.22 to 7.00'),
  ('CCN(C)S(=O)(=O)c1ccccc1Cc1c2c(n(CC(=O)O)c1C)CC(C)(C)CC2=O [Compound I-3]', '7.00 to 8.00');
